experiment: Inhibition of bovine liver beta-glucosidase
measure-name: pIC50
One number for each entry, as −log10 of the molar value.

In: Please report the recorded pIC50 for C[C@@H]1CNC[C@@H](O)[C@@H](O)[C@@H]1O .
Out: 3.61
